Reported ED85 values for the following molecules.
System: Trichostrongylus colubriformis
protocol_notes: Tested in vivo for the biological efficacy using Trichostrongylus colubriformis gerbil assay
Assay type: functional
observed_property: ED85 (mg/kg)

[[record]]
molecule = "CCC(C)[C@H]1O[C@]2(C=C[C@@H]1C)C[C@@H]1C[C@@H](C/C=C(\\C)[C@@H](O[C@H]3C[C@H](OC)[C@@H](O[C@H]4C[C@H](OC)[C@@H]([S+]([O-])CCO)[C@H](C)O4)[C@H](C)O3)[C@@H](C)/C=C/C=C3\\CO[C@@H]4[C@H](O)C(C)=C[C@@H](C(=O)O1)[C@]34O)O2 (stereo partly drawn)"
numeric_value = 0.063

[[record]]
molecule = "CCC(C)[C@H]1O[C@]2(C=C[C@@H]1C)C[C@@H]1C[C@@H](C/C=C(\\C)[C@@H](O[C@H]3C[C@H](OC)[C@@H](O[C@H]4C[C@H](OC)[C@H](SCC(C)O)[C@H](C)O4)[C@H](C)O3)[C@@H](C)/C=C/C=C3\\CO[C@@H]4[C@H](O)C(C)=C[C@@H](C(=O)O1)[C@]34O)O2 (stereo partly drawn)"
numeric_value = 0.063

[[record]]
molecule = "CCC(C)[C@H]1O[C@]2(C=C[C@@H]1C)C[C@@H]1C[C@@H](C/C=C(\\C)[C@@H](O[C@H]3C[C@H](OC)[C@@H](O[C@H]4C[C@H](OC)[C@@H](O)[C@H](C)O4)[C@H](C)O3)[C@@H](C)/C=C/C=C3\\CO[C@@H]4[C@H](O)C(C)=C[C@@H](C(=O)O1)[C@]34O)O2 (stereo partly drawn)"
numeric_value = 0.031


* * *

Test system: Caenorhabditis elegans
protocol_notes: Tested in vitro for the biological efficacy using Caenorhabditis elegans binding assay
Type: functional, organism-based
Reported IC50 values for the following compounds.
observed_property: IC50 (ng/mL)

[[record]]
compound = "CCC(C)[C@H]1O[C@]2(C=C[C@@H]1C)C[C@@H]1C[C@@H](C/C=C(\\C)[C@@H](O[C@H]3C[C@H](OC)[C@@H](O[C@H]4C[C@H](OC)[C@@H](S(=O)(=O)CCO)[C@H](C)O4)[C@H](C)O3)[C@@H](C)/C=C/C=C3\\CO[C@@H]4[C@H](O)C(C)=C[C@@H](C(=O)O1)[C@]34O)O2 (some centres not stated)"
numeric_value = 0.351

[[record]]
compound = "CCC(C)[C@H]1O[C@]2(C=C[C@@H]1C)C[C@@H]1C[C@@H](C/C=C(\\C)[C@@H](O[C@H]3C[C@H](OC)[C@H](SC)[C@H](C)O3)[C@@H](C)/C=C/C=C3\\CO[C@@H]4[C@H](O)C(C)=C[C@@H](C(=O)O1)[C@]34O)O2 (some centres not stated)"
numeric_value = 0.422


* * *

Reported ED85 values for the following compounds.
System: Trichostrongylus colubriformis
protocol_notes: Tested in vivo for the biological efficacy using Trichostrongylus colubriformis gerbil assay
Type: functional
observed_property: ED85 (mg/kg)

[[record]]
compound = "CCC(C)[C@H]1O[C@]2(C=C[C@@H]1C)C[C@@H]1C[C@@H](C/C=C(\\C)[C@@H](O[C@H]3C[C@H](OC)[C@H](SCCNC(C)=O)[C@H](C)O3)[C@@H](C)/C=C/C=C3\\CO[C@@H]4[C@H](O)C(C)=C[C@@H](C(=O)O1)[C@]34O)O2 (some centres not stated)"
observed_property = "ED85"
readout_unit = "mg/kg"
numeric_value = 0.063

[[record]]
compound = "CCC(C)[C@H]1O[C@]2(C=C[C@@H]1C)C[C@@H]1C[C@@H](C/C=C(\\C)[C@@H](O[C@H]3C[C@H](OC)[C@@H](O[C@H]4C[C@H](OC)[C@@H](SC)[C@H](C)O4)[C@H](C)O3)[C@@H](C)/C=C/C=C3\\CO[C@@H]4[C@H](O)C(C)=C[C@@H](C(=O)O1)[C@]34O)O2 (some centres not stated)"
observed_property = "ED85"
readout_unit = "mg/kg"
numeric_value = 0.25


* * *

System: Trichostrongylus colubriformis
protocol_notes: Tested in vivo for the biological efficacy using Trichostrongylus colubriformis gerbil assay
Type: functional
Assign labels as follows, please: met for ED85 below 0.06 mg/kg; not met for ED85 equal to or exceeding 0.06 mg/kg.

[[record]]
compound = "CCC(C)[C@H]1O[C@]2(CC[C@@H]1C)C[C@@H]1C[C@@H](C/C=C(\\C)[C@@H](O[C@H]3C[C@H](OC)[C@@H](O[C@H]4C[C@H](OC)[C@H](S(C)(=O)=O)[C@H](C)O4)[C@H](C)O3)[C@@H](C)/C=C/C=C3\\CO[C@@H]4[C@H](O)C(C)=C[C@@H](C(=O)O1)[C@]34O)O2 (some centres not stated)"
study_system = "Trichostrongylus colubriformis"
assigned_class = "not met"

[[record]]
compound = "CCC(C)[C@H]1O[C@]2(C=C[C@@H]1C)C[C@@H]1C[C@@H](C/C=C(\\C)[C@@H](O[C@H]3C[C@H](OC)[C@@H](O[C@H]4C[C@H](OC)[C@@H](S(=O)(=O)CC)[C@H](C)O4)[C@H](C)O3)[C@@H](C)/C=C/C=C3\\CO[C@@H]4[C@H](O)C(C)=C[C@@H](C(=O)O1)[C@]34O)O2 (some centres not stated)"
study_system = "Trichostrongylus colubriformis"
assigned_class = "not met"

[[record]]
compound = "CCC(C)[C@H]1O[C@]2(C=C[C@@H]1C)C[C@@H]1C[C@@H](C/C=C(\\C)[C@@H](O[C@H]3C[C@H](OC)[C@@H](O[C@H]4C[C@H](OC)[C@@H](S(=O)(=O)CCO)[C@H](C)O4)[C@H](C)O3)[C@@H](C)/C=C/C=C3\\CO[C@@H]4[C@H](O)C(C)=C[C@@H](C(=O)O1)[C@]34O)O2 (some centres not stated)"
study_system = "Trichostrongylus colubriformis"
assigned_class = "not met"

[[record]]
compound = "CCC(C)[C@H]1O[C@]2(CC[C@@H]1C)C[C@@H]1C[C@@H](C/C=C(\\C)[C@@H](O[C@H]3C[C@H](OC)[C@@H](O[C@H]4C[C@H](OC)[C@H]([S+](C)[O-])[C@H](C)O4)[C@H](C)O3)[C@@H](C)/C=C/C=C3\\CO[C@@H]4[C@H](O)C(C)=C[C@@H](C(=O)O1)[C@]34O)O2 (some centres not stated)"
study_system = "Trichostrongylus colubriformis"
assigned_class = "not met"

[[record]]
compound = "CCC(C)[C@H]1O[C@]2(C=C[C@@H]1C)C[C@@H]1C[C@@H](C/C=C(\\C)[C@@H](O[C@H]3C[C@H](OC)[C@@H](O)[C@H](C)O3)[C@@H](C)/C=C/C=C3\\CO[C@@H]4[C@H](O)C(C)=C[C@@H](C(=O)O1)[C@]34O)O2 (some centres not stated)"
study_system = "Trichostrongylus colubriformis"
assigned_class = "not met"

[[record]]
compound = "CCC(C)[C@H]1O[C@]2(C=C[C@@H]1C)C[C@@H]1C[C@@H](C/C=C(\\C)[C@@H](O[C@H]3C[C@H](OC)[C@@H](O[C@H]4C[C@H](OC)[C@@H]([S+](C)[O-])[C@H](C)O4)[C@H](C)O3)[C@@H](C)/C=C/C=C3\\CO[C@@H]4[C@H](O)C(C)=C[C@@H](C(=O)O1)[C@]34O)O2 (some centres not stated)"
study_system = "Trichostrongylus colubriformis"
assigned_class = "met"

[[record]]
compound = "CCC(C)[C@H]1O[C@]2(C=C[C@@H]1C)C[C@@H]1C[C@@H](C/C=C(\\C)[C@@H](O[C@H]3C[C@H](OC)[C@@H](O[C@H]4C[C@H](OC)[C@H](S(=O)(=O)CC)[C@H](C)O4)[C@H](C)O3)[C@@H](C)/C=C/C=C3\\CO[C@@H]4[C@H](O)C(C)=C[C@@H](C(=O)O1)[C@]34O)O2 (some centres not stated)"
study_system = "Trichostrongylus colubriformis"
assigned_class = "met"

[[record]]
compound = "CCC(C)[C@H]1O[C@]2(C=C[C@@H]1C)C[C@@H]1C[C@@H](C/C=C(\\C)[C@@H](O[C@H]3C[C@H](OC)[C@@H](O[C@H]4C[C@H](OC)[C@H]([S+](C)[O-])[C@H](C)O4)[C@H](C)O3)[C@@H](C)/C=C/C=C3\\CO[C@@H]4[C@H](O)C(C)=C[C@@H](C(=O)O1)[C@]34O)O2 (some centres not stated)"
study_system = "Trichostrongylus colubriformis"
assigned_class = "met"

[[record]]
compound = "CCC(C)[C@H]1O[C@]2(C=C[C@@H]1C)C[C@@H]1C[C@@H](C/C=C(\\C)[C@@H](O[C@H]3C[C@H](OC)[C@@H](O[C@H]4C[C@H](OC)[C@@H](SCCO)[C@H](C)O4)[C@H](C)O3)[C@@H](C)/C=C/C=C3\\CO[C@@H]4[C@H](O)C(C)=C[C@@H](C(=O)O1)[C@]34O)O2 (some centres not stated)"
study_system = "Trichostrongylus colubriformis"
assigned_class = "not met"

[[record]]
compound = "CCC(C)[C@H]1O[C@]2(C=C[C@@H]1C)C[C@@H]1C[C@@H](C/C=C(\\C)[C@@H](O[C@H]3C[C@H](OC)[C@@H](O[C@H]4C[C@H](OC)[C@@H](SCC(C)O)[C@H](C)O4)[C@H](C)O3)[C@@H](C)/C=C/C=C3\\CO[C@@H]4[C@H](O)C(C)=C[C@@H](C(=O)O1)[C@]34O)O2 (some centres not stated)"
study_system = "Trichostrongylus colubriformis"
assigned_class = "not met"

[[record]]
compound = "CCC(C)[C@H]1O[C@]2(C=C[C@@H]1C)C[C@@H]1C[C@@H](C/C=C(\\C)[C@@H](O[C@H]3C[C@H](OC)[C@@H](O[C@H]4C[C@H](OC)[C@H](S(=O)(=O)CCO)[C@H](C)O4)[C@H](C)O3)[C@@H](C)/C=C/C=C3\\CO[C@@H]4[C@H](O)C(C)=C[C@@H](C(=O)O1)[C@]34O)O2 (some centres not stated)"
study_system = "Trichostrongylus colubriformis"
assigned_class = "not met"

[[record]]
compound = "CCC(C)[C@H]1O[C@]2(C=C[C@@H]1C)C[C@@H]1C[C@@H](C/C=C(\\C)[C@@H](O[C@H]3C[C@H](OC)[C@@H](O[C@H]4C[C@H](OC)[C@H](SCCNC(C)=O)[C@H](C)O4)[C@H](C)O3)[C@@H](C)/C=C/C=C3\\CO[C@@H]4[C@H](O)C(C)=C[C@@H](C(=O)O1)[C@]34O)O2 (some centres not stated)"
study_system = "Trichostrongylus colubriformis"
assigned_class = "met"


Source of measurements: ChEMBL document CHEMBL1126980
